Reference source for all entries: the supplement of paper PMC11417369

Below, each entry is listed alongside its reported gcPBM binding intensity (ln).
- Test system: PfAP2-G AP2 domain (GST-tagged)
- Assay name: gcPBM binding intensity (ln(normalized median fluorescence intensity)); higher = stronger DNA binding
Whole data set: some 25,000 sequences, median “ln(normalized median fluorescence intensity)” near 10, cut for the highest 2% near 12. The sample holds the highest values, similar sequences and a random draw of the others, so the mix is not that of the screen.

Observe how each entry below is paired with its result.
Residue string	Experimental system	gcPBM binding intensity (ln)
GCTAGTTTTTTTTGGCGTACAGTACCGGTTTACTTT [XGTACX_site2606]	PfAP2-G AP2 domain (GST-tagged)	11.6
AAAACATATTTTAAAAGTACTTGAAAAAAAATTTTC [XGTACX_site3940]	PfAP2-G AP2 domain (GST-tagged)	11
TTTTTAATTTTTTTTAAACACACACCGTACATTCAA [CACACA_site7925]	PfAP2-G AP2 domain (GST-tagged)	10.8

query: Which gcPBM binding intensity (ln) is listed for AAAAATAAAATAAAATAAAATAAAAATAAAGAAAAA [CACACA_negctrl_site808] ?
result: 9.39

query: Which gcPBM binding intensity (ln) is listed for TCTGTAGTTTTTTACAGTACTTTTAGGTAATACATA [XGTACX_site7417] ?
result: 11

query: Which gcPBM binding intensity (ln) is listed for ATAAGCTCATGCAGGTGTACACAAAAAGAAAAAAAA [XGTACX_site2433] ?
result: 11.6

query: Which gcPBM binding intensity (ln) is listed for AGGTGAGCTCAGACTACACACACAAAGAAAAAAATA [CACACA_site8439] ?
result: 10.2

query: Which gcPBM binding intensity (ln) is listed for CAAAAAGGAATGTATGCACACAATTGATTTTAACTC [CACACA_site1468] ?
result: 10

query: Which gcPBM binding intensity (ln) is listed for TTCCAAAATTGCACATGTACAAAATTCTCCAATATG [XGTACX_site3419] ?
result: 10.9

query: Which gcPBM binding intensity (ln) is listed for ATGTCTATATATTAAGGTACACATATATGCTATTCA [XGTACX_site6008] ?
result: 11.1

query: Which gcPBM binding intensity (ln) is listed for TGTCTTTAAATTTCTCAACACACAGTTATAAAAAAT [CACACA_site8930] ?
result: 9.94

query: Which gcPBM binding intensity (ln) is listed for ATTTTGTTATTATATATATATATATATATATATATA [XGTACX_negctrl_site590] ?
result: 9.89

###

Below, each entry is listed alongside its reported gcPBM binding intensity (ln).
- Test system: PfAP2-G AP2 domain (GST-tagged)
- Assay name: gcPBM binding intensity (ln(normalized median fluorescence intensity)); higher = stronger DNA binding
Over roughly 25,000 sequences, “ln(normalized median fluorescence intensity)” has its median near 10; the highest 2% begin near 12. Shown is part of a subset that was picked to be rich in the highest values.

Residue string	Measure	Result
CGTTATATATTTTATAGTACTTTTTGTAAATTTTTT [XGTACX_site7682]	gcPBM binding intensity (ln)	11.1

query: Short answer please: gcPBM binding intensity (ln), PfAP2-G AP2 domain (GST-tagged), entry ATATATATATATAATGCACACATTATGAATTATGTA [CACACA_site3384]
result: 9.9

query: Short answer please: gcPBM binding intensity (ln), PfAP2-G AP2 domain (GST-tagged), entry TGTATAAATAAATGCGTACACACTAATAAAAAAAAA [CACACA_site858]
result: 11.6

query: Short answer please: gcPBM binding intensity (ln), PfAP2-G AP2 domain (GST-tagged), entry CGAAACCATATGTACACACACATATATAAATATGTA [CACACA_site7082]
result: 11.3

query: Short answer please: gcPBM binding intensity (ln), PfAP2-G AP2 domain (GST-tagged), entry TAAGGTTCATTAAAGTGTACACATAAATACCGTAAC [XGTACX_site8212]
result: 11.6

query: Short answer please: gcPBM binding intensity (ln), PfAP2-G AP2 domain (GST-tagged), entry TAAAATGAAGGAATATGTACATAAATAAACATATAT [XGTACX_site6266]
result: 11.2

###

Below, each entry is listed alongside its reported gcPBM binding intensity (ln).
- Test system: PfAP2-G AP2 domain (GST-tagged)
- Assay name: gcPBM binding intensity (ln(normalized median fluorescence intensity)); higher = stronger DNA binding
In all, about 25,000 sequences were measured (“ln(normalized median fluorescence intensity)”: median about 10, highest 2% from about 12 on). Only a selection was taken, and the highest values are over-represented in it overall.
Respond numerically, and do not add a unit to the figure.

Residue string	Experimental system	gcPBM binding intensity (ln)
TAATAAATAAGACACACACACATATATATATATTAT [CACACA_site1389]	PfAP2-G AP2 domain (GST-tagged)	10
ATTTAAGGGGTGTATGCACACGACTATTCCGTATGA [CACACA_site4738]	PfAP2-G AP2 domain (GST-tagged)	10.2
TAGGTGTTAAAAAATACACACACAAAAAAAAAAAAA [CACACA_site7927]	PfAP2-G AP2 domain (GST-tagged)	9.93
TGTAAATATAAATGTAATAAATATGTAAAAATAAAT [XGTACX_negctrl_site171]	PfAP2-G AP2 domain (GST-tagged)	9.79
TTAATTAAATATTATACACACAAAAAAATAATTTTA [CACACA_site96]	PfAP2-G AP2 domain (GST-tagged)	10

query: Which gcPBM binding intensity (ln) is listed for AGAAATATATATATATATATATATATATATATATAT [TGCATGCA_negctrl_site375] ?
result: 10

query: Which gcPBM binding intensity (ln) is listed for TATTGTATTTAATAAACACACAATATTAAAAATATA [CACACA_site4725] ?
result: 9.91

query: Which gcPBM binding intensity (ln) is listed for CAACACTTTCAAAAATGTACGTACAAATGTATTTTA [XGTACX_site6713] ?
result: 11.7

query: Which gcPBM binding intensity (ln) is listed for AAAGAATTTGCATATACACACAAAAAAATATATACA [CACACA_site386] ?
result: 10

query: Which gcPBM binding intensity (ln) is listed for TGTGTCAAATAATTAATGTCATATATATTTTGTATA [CACACA_negctrl_site1479] ?
result: 9.68

query: Which gcPBM binding intensity (ln) is listed for AGATATTTTTCTTAAGTACACACTAATTAGAAACTA [CACACA_site7897] ?
result: 11.3

###

Below, each entry is listed alongside its reported gcPBM binding intensity (ln).
- System: PfAP2-G AP2 domain (GST-tagged)
- Assay name: gcPBM binding intensity (ln(normalized median fluorescence intensity)); higher = stronger DNA binding
In all, about 25,000 sequences were measured (“ln(normalized median fluorescence intensity)”: median about 10, highest 2% from about 12 on). The entries come from a sample that favours the highest values as a whole.

Residue string	Result
AATAAATTAATAAGGTGTACATAAATAATTTATATA [XGTACX_site8278]	11.5
ATAAACATCGGTAGTACACACATTCATGTACTTGAT [CACACA_site3037]	11.8

query: Which gcPBM binding intensity (ln) is listed for CAACATATGCATATGTGTACATATTTTATTTTCAAC [XGTACX_site2237] ?
result: 11.7

###

- System: PfAP2-G AP2 domain (GST-tagged)
- Assay name: gcPBM binding intensity (ln(normalized median fluorescence intensity)); higher = stronger DNA binding
In all, about 25,000 sequences were measured (“ln(normalized median fluorescence intensity)”: median about 10, highest 2% from about 12 on). This is one part of a sample in which the highest values are shown more often than they occur.
Below, each entry is listed alongside its reported gcPBM binding intensity (ln).
Respond numerically, and do not add a unit to the figure.

query: Which gcPBM binding intensity (ln) is listed for ATCTTTCGTACATGTACACACAGAAAAAAAAAAAAA [CACACA_site2502] ?
result: 11.5

query: Which gcPBM binding intensity (ln) is listed for TTTTATTTATCTTAATGTACACATTTATATATATAT [XGTACX_site8588] ?
result: 11.7

query: Which gcPBM binding intensity (ln) is listed for ATTTGGCATAAACACACACACACACCCACCCACATA [CACACA_site8096] ?
result: 10.6

query: Which gcPBM binding intensity (ln) is listed for ATATTTATAATTTTTTGTACACATTTTTTAAAGATA [XGTACX_site1784] ?
result: 11.4

query: Which gcPBM binding intensity (ln) is listed for TTTTTTGCTAAGTGTACACAAATGTTTATTAATTTA [CACACA_site5859] ?
result: 11.7

query: Which gcPBM binding intensity (ln) is listed for ATGTGATAGAAGTACACACACATATGTATTTATAAT [CACACA_site5075] ?
result: 11.7

query: Which gcPBM binding intensity (ln) is listed for GATTTTAATGGGTGTACACATTTATTTATATAAAGT [CACACA_site5317] ?
result: 11.7

query: Which gcPBM binding intensity (ln) is listed for GTTTGTATAGGTTCATGTACAAAAAAAAAAAAAAAA [XGTACX_site537] ?
result: 11

query: Which gcPBM binding intensity (ln) is listed for GTATGTATGTATATATGTACACATTATTATTTAATG [XGTACX_site5802] ?
result: 11.6

query: Which gcPBM binding intensity (ln) is listed for AAAAGAAAAGAGAGGAGTACAAAATATAATTATCTA [XGTACX_site5172] ?
result: 11.3

query: Which gcPBM binding intensity (ln) is listed for ATATATAATTTTTGCTGTACACAAAATATTAATTTA [XGTACX_site2057] ?
result: 11.5

query: Which gcPBM binding intensity (ln) is listed for AAAAAAAAAAGAAAGAGTACTTTTTCAATACATATA [XGTACX_site2468] ?
result: 11.1

query: Which gcPBM binding intensity (ln) is listed for ATTTTTTCTGTCTTAATTGGACCCACTGCAAATGGG [CACACA_negctrl_site1158] ?
result: 10.9

query: Which gcPBM binding intensity (ln) is listed for TTTGTGTATATATAATGTACATTATATTTTTATTAT [XGTACX_site6506] ?
result: 10.9

query: Which gcPBM binding intensity (ln) is listed for TAAAAAAACATATATTGTACGGAGATAATAATTTTT [XGTACX_site2946] ?
result: 10.6

query: Which gcPBM binding intensity (ln) is listed for AAAAATTACCCTTGTGTACACATATATTATCTGTAT [CACACA_site4513] ?
result: 11.6

query: Which gcPBM binding intensity (ln) is listed for TTTATATGTATTAAGTGTACACATATAATGTATTTT [XGTACX_site16] ?
result: 11.5

query: Which gcPBM binding intensity (ln) is listed for TAAAAATATAAATTTTGTACGTAAAAAATGGTTCTT [XGTACX_site1506] ?
result: 11.5

query: Which gcPBM binding intensity (ln) is listed for TCTTTAATGATGTGTACACAAGAAAACATTGTTAAG [CACACA_site5299] ?
result: 11.7

query: Which gcPBM binding intensity (ln) is listed for AATAGGGTCATTCAAAAAAAAAAAAAATAATAATAC [CACACA_negctrl_site644] ?
result: 10.1

query: Which gcPBM binding intensity (ln) is listed for TTAATCTTTCCTACATGTACACACAGAAAAAAAAAA [XGTACX_site5213] ?
result: 11.5

query: Which gcPBM binding intensity (ln) is listed for ATGTGATATAAGTACACACACATATGTATTTATAAC [CACACA_site6942] ?
result: 11.5

query: Which gcPBM binding intensity (ln) is listed for ATGTGATATAAGTACACACACATATGTATATAGAAT [CACACA_site1823] ?
result: 11.5
